Biological target: D(2) dopamine receptor (Homo sapiens) (UniProt P14416)
Sequence (P14416 whole entry, looked up): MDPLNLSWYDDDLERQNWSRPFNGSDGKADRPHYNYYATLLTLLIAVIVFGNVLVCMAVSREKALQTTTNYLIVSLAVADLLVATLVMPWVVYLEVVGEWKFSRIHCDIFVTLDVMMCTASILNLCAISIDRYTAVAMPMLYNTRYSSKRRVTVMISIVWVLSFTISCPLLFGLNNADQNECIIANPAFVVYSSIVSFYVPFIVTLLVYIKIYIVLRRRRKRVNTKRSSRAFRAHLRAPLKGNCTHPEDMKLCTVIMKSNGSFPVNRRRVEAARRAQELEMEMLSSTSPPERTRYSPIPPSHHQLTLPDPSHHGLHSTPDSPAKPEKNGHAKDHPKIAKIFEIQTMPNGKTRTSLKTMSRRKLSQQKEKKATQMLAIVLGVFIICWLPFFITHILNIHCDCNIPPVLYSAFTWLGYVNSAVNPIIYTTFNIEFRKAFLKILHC
Assay: Dopamine D2 receptor (DRD2) small molecule agonists, cell-based qHTS assay (AID 1963594); note: nearly all actives have a fitted effect of over 35% in size
Conditions: HEK293-DRD2 cAMP HTRF, agonist mode, 30 min; series mostly up to 92.4 µM
Results filed as inconclusive are left out. Active and inactive are the calls of the source. Calls come from the whole dose curve.
Outcomes: active, inactive

{"Molecule": "COc1cc(C[C@@H](C)N)c(OC)cc1Br", "Class name": "active"}
{"Molecule": "O=CC(Br)(Br)Br", "Class name": "inactive"}
{"Molecule": "CCOC(=O)/C=C(C)/C=C/C[C@@H](C)CCCC(C)C", "Class name": "inactive"}
{"Molecule": "[O-][Br+2]([O-])O", "Class name": "inactive"}
{"Molecule": "COc1cc(CCN)cc(OC)c1OC", "Class name": "inactive"}
{"Molecule": "C[C@@H](Oc1ccc(Cl)cc1Cl)C(=O)O", "Class name": "inactive"}
{"Molecule": "CCOC(=O)NC(C)(C)Cc1ccc(Cl)cc1", "Class name": "inactive"}
{"Molecule": "NC(=S)C(N)=S", "Class name": "inactive"}
{"Molecule": "CN1CCC(O)(c2ccc(F)cc2)C(C(=O)c2ccc(F)cc2)C1 (stereo not given)", "Class name": "inactive"}
{"Molecule": "CCCCCCCCBr", "Class name": "inactive"}
{"Molecule": "O=C1c2ccccc2C(=O)C1C(=O)C(c1ccccc1)c1ccccc1", "Class name": "inactive"}
{"Molecule": "C=CCOC(=O)c1ccccc1N", "Class name": "inactive"}
{"Molecule": "NNC(N)=O", "Class name": "inactive"}
{"Molecule": "C=CCN1CC[C@]23c4c5ccc(O)c4O[C@H]2C(=O)CC[C@@]3(O)[C@H]1C5", "Class name": "inactive"}
{"Molecule": "COP(=O)(OC)O/C(C)=C/C(=O)N(C)C", "Class name": "inactive"}
{"Molecule": "OC(Cc1ccccc1Cl)(Cn1[nH]cnc1=S)C1(Cl)CC1 (stereo not given)", "Class name": "inactive"}
{"Molecule": "CC(Cc1ccccc1)NCCn1cnc2c1c(=O)n(C)c(=O)n2C (stereo not given)", "Class name": "inactive"}
{"Molecule": "CCOP(=S)(OCC)Oc1nc(Cl)n(C(C)C)n1", "Class name": "inactive"}
{"Molecule": "CN", "Class name": "inactive"}
{"Molecule": "CCCCCCCCCCCCCCC(Br)C(=O)O (stereo not given)", "Class name": "inactive"}
{"Molecule": "CNC(=O)Oc1cc(C)c(SC)c(C)c1", "Class name": "inactive"}
{"Molecule": "COc1cnc(OC)n2nc(NS(=O)(=O)c3c(OCC(F)F)cccc3C(F)(F)F)nc12", "Class name": "inactive"}
{"Molecule": "CCCSP(=O)(OCC)Oc1ccc(Br)cc1Cl (stereo not given)", "Class name": "inactive"}
{"Molecule": "S=C=NCCc1ccccc1", "Class name": "inactive"}
{"Molecule": "CC(=O)C(Cl)C(=O)N(C)C (stereo not given)", "Class name": "inactive"}
{"Molecule": "ClCc1ccc(Cl)cc1Cl", "Class name": "inactive"}
{"Molecule": "Cc1ccc(C)c2ccccc12", "Class name": "inactive"}
{"Molecule": "O=C(Cl)C(Cl)(Cl)Cl", "Class name": "inactive"}
{"Molecule": "O=c1[nH]c2ccccc2n1C1CCNCC1", "Class name": "inactive"}
{"Molecule": "Cc1nc2ccccc2c(=O)n1-c1ccccc1Cl", "Class name": "inactive"}
{"Molecule": "CCOc1cc(Oc2ccc(C(F)(F)F)cc2Cl)ccc1[N+](=O)[O-]", "Class name": "inactive"}
{"Molecule": "N#CCCl", "Class name": "inactive"}
{"Molecule": "CN1CCc2cc3c(cc2C1O)OCO3 (stereo not given)", "Class name": "inactive"}
{"Molecule": "O=S(=O)(NS(=O)(=O)C(F)(F)F)C(F)(F)F", "Class name": "inactive"}
{"Molecule": "FC(F)(F)c1cccc(C2=CCN(CCc3ccc4ccccc4c3)CC2)c1", "Class name": "inactive"}
